- Test Target: Melanin-concentrating hormone receptor 2 (Homo sapiens, UniProt Q969V1)
- Sequence (Q969V1 whole entry): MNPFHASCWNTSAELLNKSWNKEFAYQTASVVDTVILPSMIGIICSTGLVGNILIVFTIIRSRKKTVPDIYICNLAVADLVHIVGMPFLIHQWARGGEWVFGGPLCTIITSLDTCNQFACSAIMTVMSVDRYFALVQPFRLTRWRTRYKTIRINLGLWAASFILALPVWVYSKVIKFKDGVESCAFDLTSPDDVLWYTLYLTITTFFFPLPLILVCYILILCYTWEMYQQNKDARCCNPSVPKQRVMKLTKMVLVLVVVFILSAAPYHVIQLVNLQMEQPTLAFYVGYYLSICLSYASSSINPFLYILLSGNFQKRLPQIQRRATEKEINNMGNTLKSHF
- Assay Summary: Inhibition of 125I-[Phe13,Tyr19]-MCH binding to human MCH-R2 at 2uM
Endpoint Label: inhibition

INSERT INTO measurements (compound, result) VALUES
  ('CCCc1cc(N)c2cc(NC(=O)c3ccc(-c4ccc(C(F)(F)F)cc4)cc3)ccc2n1', '< 50%'),
  ('CCCc1cc(N)c2cc(NC(=O)/C=C/c3ccccc3Cl)ccc2n1', '< 50%'),
  ('CCCc1cc(N)c2cc(NC(=O)/C=C/c3ccc(C(F)(F)F)cc3)ccc2n1 (stereo in doubt; form 2)', '< 50%');

----------
- Test Target: Melanin-concentrating hormone receptor 1 (Homo sapiens, UniProt Q99705)
- Sequence (Q99705 whole entry): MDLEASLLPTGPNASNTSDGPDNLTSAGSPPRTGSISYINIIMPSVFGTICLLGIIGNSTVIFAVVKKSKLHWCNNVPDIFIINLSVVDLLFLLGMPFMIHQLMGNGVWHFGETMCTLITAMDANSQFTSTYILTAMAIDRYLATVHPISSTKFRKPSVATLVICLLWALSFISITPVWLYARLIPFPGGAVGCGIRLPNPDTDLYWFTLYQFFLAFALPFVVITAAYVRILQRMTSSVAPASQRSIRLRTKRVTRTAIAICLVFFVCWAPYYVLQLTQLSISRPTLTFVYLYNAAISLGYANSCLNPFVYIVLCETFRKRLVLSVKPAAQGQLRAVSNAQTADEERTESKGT
- Assay Summary: Stimulation of IP3-coupled mobilization of calcium in HEK293 cells expressing MCH-R1
Endpoint Label: EC50 (nM)

INSERT INTO measurements (compound, measured_number) VALUES
  ('CCCc1cc(N2CCCC2)c2cc(NC(=O)/C=C/c3ccc(C(F)(F)F)cc3)ccc2n1', 2800),
  ('CCCc1cc(N)c2cc(NC(=O)/C=C/c3ccc(SC)cc3)ccc2n1', 71),
  ('CC(C)c1cc(N)c2cc(NC(=O)/C=C/c3ccc(C(F)(F)F)cc3)ccc2n1', 160),
  ('CCCc1cc(N)c2cc(NC(=O)/C=C/c3ccc(-c4ccccc4)cc3)ccc2n1', 118),
  ('CCCc1cc(N)c2cc(NC(=O)/C=C/c3ccc(C(F)(F)F)cc3)ccc2n1 (stereo in doubt; form 2)', 40),
  ('CCCc1cc(N)c2cc(NC(=O)/C=C/c3ccc(C)cc3)ccc2n1', 71),
  ('CCCc1ccc(/C=C/C(=O)Nc2ccc3nc(CCC)cc(N)c3c2)cc1', 3600),
  ('CCCc1cc(N)c2cc(NC(=O)c3ccc(-c4ccc(C(F)(F)F)cc4)cc3)ccc2n1', 310),
  ('CCCc1cc(N)c2cc(NC(=O)/C=C/c3ccc(Cl)cc3Cl)ccc2n1', 904);

----------
Listed here are molecules together with their documented log10(IC50).
- Test Target: Melanin-concentrating hormone receptor 1 (Homo sapiens, UniProt Q99705)
Endpoint Label: log10(IC50) (log10 of the value in nM)

INSERT INTO measurements (molecule, measured_number) VALUES
  ('CCC(C)c1cc(N)c2cc(NC(=O)/C=C/c3ccc(C(F)(F)F)cc3)ccc2n1 (stereo not given)', -0.52),
  ('CC(C)(C)c1cc(N)c2cc(NC(=O)/C=C/c3ccc(C(F)(F)F)cc3)ccc2n1', -0.52),
  ('CCCc1cc(N)c2cc(NC(=O)/C=C/c3ccc(N)cc3)ccc2n1', 2.28),
  ('CCCc1cc(N)c2cc(NC(=O)/C=C/c3ccc(Cl)cc3Cl)ccc2n1', 0.82),
  ('CCCc1cc(N)c2cc(NC(=O)/C=C/c3ccc(SC)cc3)ccc2n1', 0.95),
  ('CCCc1cc(N)c2cc(NC(=O)/C=C/c3ccc(F)cc3)ccc2n1', 2.11),
  ('CCCc1cc(N)c2cc(NC(=O)/C=C/c3ccc(OC(C)=O)cc3)ccc2n1', 1.98),
  ('CCCc1cc(N)c2cc(NC(=O)/C=C/c3ccc(CC)cc3)ccc2n1', 0.15),
  ('CCCCc1cc(N)c2cc(NC(=O)/C=C/c3ccc(C(F)(F)F)cc3)ccc2n1', 0.18);
